Taken from ChEMBL document CHEMBL1212924.

# assay_summary: Volume of distribution in rat at 1 mg/kg, iv and 2 mg/kg, po
# Assay type: ADME, organism-based
# experimental_setup: in vivo
quantity_name: log10 of Vd (log10 of the value in L/kg)
Remember, log10 of Vd, in L/kg.

Please look at this compound and report its log10 of Vd: COc1ccc2c(c1)C[C@H](C(=O)Nc1ccc(-c3cn[nH]c3)cc1OCCN(C)C)NC2
0.86

Please look at this compound and report its log10 of Vd: CN(C)CCOc1cc(-c2cn[nH]c2)c(F)cc1NC(=O)[C@H]1Cc2ccccc2CN1CC1CC1
0.85

Please look at this compound and report its log10 of Vd: CCN1Cc2ccc(OC)cc2C[C@@H]1C(=O)Nc1cc(F)c(-c2cn[nH]c2)cc1OCCN(C)C
1.23

Please look at this compound and report its log10 of Vd: COc1ccc2c(c1)C[C@H](C(=O)Nc1cc(F)c(-c3cn[nH]c3)cc1OCCN(C)C)NC2
-0.31

Please look at this compound and report its log10 of Vd: COc1ccc2c(c1)C[C@H](C(=O)Nc1ccc(-c3cn[nH]c3)cc1OCC1CCN(C)CC1)NC2
0.98

Please look at this compound and report its log10 of Vd: CN(C)CCOc1cc(-c2cn[nH]c2)c(F)cc1NC(=O)[C@H]1Cc2ccccc2CN1
1.38

###

Assignment: determine reported inhibition at 10 µM for the given compounds.
# target_or_system: CYP1A2 (Homo sapiens, UniProt P05177)
# Sequence (P05177 whole entry): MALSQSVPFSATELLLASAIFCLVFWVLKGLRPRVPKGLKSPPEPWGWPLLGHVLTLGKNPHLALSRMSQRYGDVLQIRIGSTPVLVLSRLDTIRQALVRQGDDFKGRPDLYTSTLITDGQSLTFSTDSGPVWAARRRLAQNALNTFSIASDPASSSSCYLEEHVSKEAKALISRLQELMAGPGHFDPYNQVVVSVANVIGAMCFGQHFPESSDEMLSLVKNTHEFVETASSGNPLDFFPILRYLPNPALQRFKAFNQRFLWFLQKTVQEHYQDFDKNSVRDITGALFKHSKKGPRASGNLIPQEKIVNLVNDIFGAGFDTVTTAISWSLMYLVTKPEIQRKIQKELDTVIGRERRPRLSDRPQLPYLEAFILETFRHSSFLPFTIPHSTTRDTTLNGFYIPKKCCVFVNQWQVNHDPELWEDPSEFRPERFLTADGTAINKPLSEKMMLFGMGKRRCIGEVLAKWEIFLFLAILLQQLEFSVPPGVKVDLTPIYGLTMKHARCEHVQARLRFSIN
# assay_summary: Inhibition of CYP1A2 at 10 uM
# Assay type: ADME
Please give a number only; it is taken to be in %.

Under CYP1A2 (Homo sapiens, UniProt P05177), report inhibition at 10 µM for COc1ccc2c(c1)C[C@H](C(=O)Nc1ccc(-c3cn[nH]c3)cc1OCC1CCN(C)CC1)NC2
3

Under CYP1A2 (Homo sapiens, UniProt P05177), report inhibition at 10 µM for CCN1Cc2ccccc2C[C@@H]1C(=O)Nc1cc(F)c(-c2cn[nH]c2)cc1OCCN(C)C
-24

Under CYP1A2 (Homo sapiens, UniProt P05177), report inhibition at 10 µM for COc1ccc2c(c1)C[C@H](C(=O)Nc1ccc(-c3cn[nH]c3)cc1OCCN(C)C)NC2
21

Under CYP1A2 (Homo sapiens, UniProt P05177), report inhibition at 10 µM for CN(C)CCOc1cc(-c2cn[nH]c2)c(F)cc1NC(=O)[C@H]1Cc2ccccc2CN1
31

###

# target_or_system: Rho-associated protein kinase 1 (Homo sapiens, UniProt Q13464)
# Sequence (Q13464 whole entry): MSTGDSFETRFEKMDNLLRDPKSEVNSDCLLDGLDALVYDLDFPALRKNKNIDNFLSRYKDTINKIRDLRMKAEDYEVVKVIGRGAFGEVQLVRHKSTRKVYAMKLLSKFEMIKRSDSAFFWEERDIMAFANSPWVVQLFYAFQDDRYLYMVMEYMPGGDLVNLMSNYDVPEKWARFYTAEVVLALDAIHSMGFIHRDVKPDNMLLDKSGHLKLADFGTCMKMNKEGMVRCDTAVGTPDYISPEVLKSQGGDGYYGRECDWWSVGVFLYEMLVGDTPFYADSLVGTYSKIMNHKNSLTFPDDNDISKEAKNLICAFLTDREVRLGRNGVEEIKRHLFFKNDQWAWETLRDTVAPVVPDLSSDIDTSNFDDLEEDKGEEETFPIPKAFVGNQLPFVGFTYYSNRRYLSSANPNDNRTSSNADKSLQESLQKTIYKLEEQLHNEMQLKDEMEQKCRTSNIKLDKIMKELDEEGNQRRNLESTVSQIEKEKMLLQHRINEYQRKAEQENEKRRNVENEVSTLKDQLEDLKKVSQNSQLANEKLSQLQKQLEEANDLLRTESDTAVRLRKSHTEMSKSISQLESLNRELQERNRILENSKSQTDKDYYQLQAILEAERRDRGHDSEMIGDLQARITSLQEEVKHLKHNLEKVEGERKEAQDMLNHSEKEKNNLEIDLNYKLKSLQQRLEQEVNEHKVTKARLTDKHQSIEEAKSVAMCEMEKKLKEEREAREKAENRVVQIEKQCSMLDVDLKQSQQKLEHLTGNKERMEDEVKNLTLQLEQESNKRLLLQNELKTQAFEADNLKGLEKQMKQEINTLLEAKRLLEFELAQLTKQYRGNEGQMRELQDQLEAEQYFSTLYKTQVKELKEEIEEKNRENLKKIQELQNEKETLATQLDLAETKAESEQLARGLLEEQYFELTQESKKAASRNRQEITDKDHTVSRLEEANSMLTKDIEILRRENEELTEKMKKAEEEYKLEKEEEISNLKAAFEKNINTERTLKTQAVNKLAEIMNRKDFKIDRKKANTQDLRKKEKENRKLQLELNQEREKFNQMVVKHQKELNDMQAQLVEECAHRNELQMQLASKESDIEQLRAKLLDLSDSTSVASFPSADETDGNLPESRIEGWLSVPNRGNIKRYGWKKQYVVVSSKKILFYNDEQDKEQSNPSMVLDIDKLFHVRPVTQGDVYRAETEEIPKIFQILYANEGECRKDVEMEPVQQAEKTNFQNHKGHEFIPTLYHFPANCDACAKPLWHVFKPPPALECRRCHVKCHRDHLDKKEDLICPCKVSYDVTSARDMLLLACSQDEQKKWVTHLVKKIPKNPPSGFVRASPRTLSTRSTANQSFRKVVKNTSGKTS
quantity_name: IC50
Give me the value, and tack the unit on after it.

Please look at this compound and report its IC50: COc1ccc2c(c1)C[C@H](C(=O)Nc1ccc(-c3cn[nH]c3)cc1OCCN(C)C)NC2
0.048 µM

Please look at this compound and report its IC50: CN(C)CCOc1cc(-c2cn[nH]c2)c(F)cc1NC(=O)[C@H]1Cc2ccccc2CN1
0.033 µM

Please look at this compound and report its IC50: CCN1Cc2ccccc2C[C@@H]1C(=O)Nc1cc(F)c(-c2cn[nH]c2)cc1OCCN(C)C
0.016 µM

###

Assignment: determine reported Cmax for the given compounds.
# assay_summary: Cmax in rat at 2 mg/kg, po
# Assay type: ADME, organism-based
# Set-up: dose 2 mg/kg, route oral
# experimental_setup: in vivo
Please give a number only; it is taken to be in nM.

Please look at this compound and report its Cmax: COc1ccc2c(c1)C[C@H](C(=O)Nc1ccc(-c3cn[nH]c3)cc1OCCN(C)C)NC2
242

Please look at this compound and report its Cmax: COc1ccc2c(c1)C[C@H](C(=O)Nc1cc(F)c(-c3cn[nH]c3)cc1OCCN(C)C)NC2
32

Please look at this compound and report its Cmax: CN(C)CCOc1cc(-c2cn[nH]c2)c(F)cc1NC(=O)[C@H]1Cc2ccccc2CN1
18

###

# assay_summary: in vitro
# experimental_setup: human, liver microsomes
# Description: Half life in human liver microsome at 2 mg/mL
Assignment: determine reported half-life for the given molecules.
Please give a number only; it is taken to be in min.

Please look at this molecule and report its half-life: CN(C)CCOc1cc(-c2cn[nH]c2)c(F)cc1NC(=O)[C@H]1Cc2ccccc2CN1C(=O)CN(C)C
14

Please look at this molecule and report its half-life: CN(C)CCOc1cc(-c2cn[nH]c2)ccc1NC(=O)[C@H]1Cc2cc(Cl)ccc2CN1
121

Please look at this molecule and report its half-life: COc1ccc2c(c1)C[C@H](C(=O)Nc1ccc(-c3cn[nH]c3)cc1SCCC(=O)N(C)C)NC2
3

Please look at this molecule and report its half-life: COc1ccc2c(c1)C[C@H](C(=O)Nc1ccc(-c3cn[nH]c3)cc1OC1CCN(C)CC1)NC2
104

Please look at this molecule and report its half-life: CCN1Cc2ccc(OC)cc2C[C@@H]1C(=O)Nc1cc(F)c(-c2cn[nH]c2)cc1OCCN(C)C
11

Please look at this molecule and report its half-life: CN(C)CCOc1cc(-c2cn[nH]c2)ccc1NC(=O)C1NCCc2ccccc21 (stereo unspecified)
14

###

# target_or_system: Rho-associated protein kinase 2 (Homo sapiens, UniProt O75116)
# Sequence (O75116 whole entry): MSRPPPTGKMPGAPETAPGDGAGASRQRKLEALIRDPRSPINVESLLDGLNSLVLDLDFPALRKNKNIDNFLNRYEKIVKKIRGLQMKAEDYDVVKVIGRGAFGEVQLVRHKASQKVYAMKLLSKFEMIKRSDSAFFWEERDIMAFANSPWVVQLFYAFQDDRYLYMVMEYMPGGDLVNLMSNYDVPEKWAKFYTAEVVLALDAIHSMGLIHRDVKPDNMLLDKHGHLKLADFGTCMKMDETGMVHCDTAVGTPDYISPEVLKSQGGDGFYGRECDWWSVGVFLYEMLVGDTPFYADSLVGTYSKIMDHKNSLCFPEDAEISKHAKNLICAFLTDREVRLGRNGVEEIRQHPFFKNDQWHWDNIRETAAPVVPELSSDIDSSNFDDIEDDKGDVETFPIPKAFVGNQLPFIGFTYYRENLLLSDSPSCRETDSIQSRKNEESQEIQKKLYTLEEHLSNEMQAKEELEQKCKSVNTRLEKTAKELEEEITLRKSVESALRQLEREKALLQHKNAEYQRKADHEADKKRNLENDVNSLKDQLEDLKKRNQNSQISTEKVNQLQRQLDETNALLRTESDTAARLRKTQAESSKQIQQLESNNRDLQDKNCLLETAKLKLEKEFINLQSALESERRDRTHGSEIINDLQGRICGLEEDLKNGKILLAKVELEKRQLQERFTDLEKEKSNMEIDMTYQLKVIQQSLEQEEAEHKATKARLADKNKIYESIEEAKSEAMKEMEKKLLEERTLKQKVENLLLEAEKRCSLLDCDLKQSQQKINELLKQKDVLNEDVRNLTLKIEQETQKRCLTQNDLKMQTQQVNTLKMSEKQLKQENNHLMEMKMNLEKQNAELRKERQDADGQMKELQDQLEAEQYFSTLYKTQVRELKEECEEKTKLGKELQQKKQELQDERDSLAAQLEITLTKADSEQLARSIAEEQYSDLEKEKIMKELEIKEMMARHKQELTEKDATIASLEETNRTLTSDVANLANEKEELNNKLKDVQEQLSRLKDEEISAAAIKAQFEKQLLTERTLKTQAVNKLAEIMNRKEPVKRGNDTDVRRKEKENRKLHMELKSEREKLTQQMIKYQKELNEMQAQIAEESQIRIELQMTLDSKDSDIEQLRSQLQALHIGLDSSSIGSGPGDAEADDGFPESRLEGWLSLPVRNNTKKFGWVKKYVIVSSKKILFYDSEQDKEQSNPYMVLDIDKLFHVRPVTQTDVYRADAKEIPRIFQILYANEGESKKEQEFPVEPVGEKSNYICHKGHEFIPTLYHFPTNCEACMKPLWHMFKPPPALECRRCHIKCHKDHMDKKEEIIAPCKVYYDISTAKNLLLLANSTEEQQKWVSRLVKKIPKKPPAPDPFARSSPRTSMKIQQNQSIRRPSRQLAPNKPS
Binary label based on IC50 with cut-off 0.8 µM: below gives 1.0, not below gives 0.0.

Is 0.8 µM strictly greater than the compound's reported IC50? compound: CN(C)CCOc1cc(-c2cn[nH]c2)c(F)cc1NC(=O)[C@H]1Cc2ccccc2CN1C(=O)CN(C)C
1.0

Is 0.8 µM strictly greater than the compound's reported IC50? compound: COc1ccc2c(c1)CN[C@@H](C(=O)Nc1ccc(-c3cn[nH]c3)cc1OCCN(C)C)C2
0.0

Is 0.8 µM strictly greater than the compound's reported IC50? compound: COc1cccc2c1CNC(C(=O)Nc1ccc(-c3cn[nH]c3)cc1OCCN(C)C)C2 (racemic)
1.0

Is 0.8 µM strictly greater than the compound's reported IC50? compound: CCOc1ccc2c(c1)CC(C(=O)Nc1ccc(-c3cn[nH]c3)cc1OCCN(C)C)NC2 (racemic)
1.0

Is 0.8 µM strictly greater than the compound's reported IC50? compound: COc1ccc2c(c1)C[C@H](C(=O)Nc1ccc(-c3cn[nH]c3)cc1)NC2
1.0

###

Assignment: determine reported inhibition at 10 µM for the given compounds.
# target_or_system: UniProtKB P10635
# Sequence (P10635 whole entry): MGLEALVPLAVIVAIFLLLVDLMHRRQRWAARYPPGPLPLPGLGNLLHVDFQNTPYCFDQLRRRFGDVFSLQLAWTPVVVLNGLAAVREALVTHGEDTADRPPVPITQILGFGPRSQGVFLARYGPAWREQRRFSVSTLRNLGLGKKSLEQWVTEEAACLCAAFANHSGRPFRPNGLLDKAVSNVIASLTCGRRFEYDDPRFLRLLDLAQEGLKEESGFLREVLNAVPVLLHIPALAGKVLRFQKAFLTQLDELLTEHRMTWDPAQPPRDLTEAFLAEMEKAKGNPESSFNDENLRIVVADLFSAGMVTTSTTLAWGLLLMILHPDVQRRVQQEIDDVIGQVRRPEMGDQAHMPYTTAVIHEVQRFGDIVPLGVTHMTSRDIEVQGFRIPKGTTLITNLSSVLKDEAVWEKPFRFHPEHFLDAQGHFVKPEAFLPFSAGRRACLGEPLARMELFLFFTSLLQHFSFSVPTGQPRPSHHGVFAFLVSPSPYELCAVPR
# assay_summary: Inhibition of CYP2D6 at 10 uM
# Type: ADME
Please give a number only; it is taken to be in %.

Please look at this compound and report its inhibition at 10 µM: COc1ccc2c(c1)C[C@H](C(=O)Nc1ccc(-c3cn[nH]c3)cc1OCCN(C)C)NC2
40

Please look at this compound and report its inhibition at 10 µM: CCN1Cc2ccccc2C[C@@H]1C(=O)Nc1cc(F)c(-c2cn[nH]c2)cc1OCCN(C)C
52

Please look at this compound and report its inhibition at 10 µM: CN(C)CCOc1cc(-c2cn[nH]c2)c(F)cc1NC(=O)[C@H]1Cc2ccccc2CN1
77

Please look at this compound and report its inhibition at 10 µM: COc1ccc2c(c1)C[C@H](C(=O)Nc1ccc(-c3cn[nH]c3)cc1OCC1CCN(C)CC1)NC2
52

###

# assay_summary: Oral bioavailability in rat at 2 mg/kg
# Format: ADME, organism-based
# experimental_setup: in vivo
quantity_name: bioavailability (%)
Please give a number only; it is taken to be in %.

Please look at this molecule and report its bioavailability: COc1ccc2c(c1)C[C@H](C(=O)Nc1cc(F)c(-c3cn[nH]c3)cc1OCCN(C)C)NC2
0.3

Please look at this molecule and report its bioavailability: COc1ccc2c(c1)C[C@H](C(=O)Nc1ccc(-c3cn[nH]c3)cc1OCC1CCN(C)CC1)NC2
0

Please look at this molecule and report its bioavailability: CN(C)CCOc1cc(-c2cn[nH]c2)c(F)cc1NC(=O)[C@H]1Cc2ccccc2CN1
16

Please look at this molecule and report its bioavailability: CCN1Cc2ccc(OC)cc2C[C@@H]1C(=O)Nc1cc(F)c(-c2cn[nH]c2)cc1OCCN(C)C
0
